- test.context: in ethyl acetate, 303.15 K
measurement.name: solubility (mole fraction)
Respond using a number only.

Given the molecule O=C(O)[C@@H]1C[C@@H](O)CN1 , what is its reported solubility (mole fraction)?
0.00132

* * *

- test.context: in dichloromethane, 288.15 K
measurement.name: solubility (mole fraction)
// no unit, no text: just the number

Would you kindly share the measured solubility (mole fraction) for O=C(O)[C@@H]1C[C@@H](O)CN1 ?
0.000221

* * *

- test.context: in isopropanol, 298.15 K
measurement.name: solubility (mole fraction)
Reply with just the number.

Report solubility (mole fraction) for O=C(O)[C@@H]1C[C@@H](O)CN1 please.
0.000119
